These data points were gathered from patent US20250250357A1.

I'd appreciate it if you could supply OD450 values for the items below.
biological target: T1, human MSLN-R3-his protein (human, UniProt Q13421 487-598); test: ELISA on coated antigen, antibody 20 nM
T1 construct: it is put last here; also called human MSLN-R3 protein; hMSLN-R3-his; not shown: His tag
T1 sequence (Q13421 495-606): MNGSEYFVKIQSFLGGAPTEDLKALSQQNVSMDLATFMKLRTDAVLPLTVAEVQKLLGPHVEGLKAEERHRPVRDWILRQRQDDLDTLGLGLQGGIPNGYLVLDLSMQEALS
Give bare numbers, in OD.

>>> value_observed("S009-F7.2.3 (antibody, human IgG1, kappa, V domains shown, Human-murine chimeric antibody, human IgG1 heavy and kappa light constant regions) VH: ELQLVESGGDLVKPGGSLKLSCAASGFTFSSNGMSWLRQTPDKRLEWVATISSGGRYTYYPDSVKGRFTISRDNAKNTLYLQMSSLKSEDTAMYYCARRGIYDYFDCWGQGTTLTVSS VL: DIQMTQSPASLSISVGETVTITCRASENIHSSLAWYQQKQGKSPQLLVYAATNLADGVPSRFSGSGSGSQYSLKINSLQSEDFGTYYCQHFWGTPWTFGGGTKLDIKR")
0.1

Now for the binder whose OD450 we want.
Short answer for S009-F7.44.20 (antibody, human IgG1, kappa, V domains shown, Human-murine chimeric antibody, human IgG1 heavy and kappa light constant regions) VH: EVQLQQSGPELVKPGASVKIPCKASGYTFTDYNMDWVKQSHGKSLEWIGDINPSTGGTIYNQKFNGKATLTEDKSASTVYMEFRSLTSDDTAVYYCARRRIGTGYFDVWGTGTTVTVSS VL: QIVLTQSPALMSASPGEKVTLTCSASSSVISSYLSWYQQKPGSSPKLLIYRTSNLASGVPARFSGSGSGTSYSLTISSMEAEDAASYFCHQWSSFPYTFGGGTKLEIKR : OD450 was 2.48
